What GI50 was measured for each of the following?
- System: MOLT-4 leukemia
- method_description: NCI tumour cell line growth inhibition, 48 h

// below: answered compounds
| compound | GI50 |
| --- | --- |
| COc1cccc(-c2nc(-c3ccc(NC(=O)c4ccccc4)cc3)[nH]c2-c2ccnc(Br)c2)c1 | 2700 nM |
| O=C1/C(=C/c2ccccc2)CN(CCC(=O)N2C/C(=C\c3ccccc3)C(=O)/C(=C/c3ccccc3)C2)C/C1=C\c1ccccc1 | 2600 nM |

// next item, GI50 requested
Give measured GI50 for CCn1cc(C(=O)N/N=C/c2cccc(F)c2)c(=O)c2cc(F)c(N3CCNC(C)C3)c(F)c21 (stereo not drawn) (MOLT-4 leukemia).
1750 nM

* * *

- Test system: NCI-H226 lung
- method_description: NCI tumour cell line growth inhibition, 48 h
What TGI was measured for each of the following?

// below: answered molecules
| molecule | TGI |
| --- | --- |
| O=c1[nH]c(Nc2cccc(Br)c2)nc2nc[nH]c12 | > 100 µM |
| CCC(c1ccc(OC)cc1)C(CC)c1ccc(O)c(CN2CCCC2)c1 (stereo unspecified) | 24.7 µM |
| C#Cc1cccc(Nc2ncnc3ccc(-c4cnc(Cl)c(NS(C)(=O)=O)c4)cc23)c1 | 4.3 µM |

For each of the items listed, what is its TGI?
1. CC(C)NC(=O)OCc1c(COC(=O)NC(C)C)c(-c2ccc[n+](COC(=O)C3CC3)c2)n2c1CCC2
2. C/C(=N\NS(=O)(=O)c1ccc(C)cc1)c1c(O)cc(C)oc1=O
3. CCOC(=O)C(C)(C)/C=C\C(Cl)=C(Cl)Cl

["> 100 µM", "> 100 µM", "> 100 µM"]

For each of the items listed, what is its TGI?
1. CC1=C(C(=O)NCC(C)O)CC(C(=O)NCC(C)O)=C(C)N1 (stereo unspecified)
2. CN(C)CCNC1=CC(=O)c2c(O)ccc(O)c2C1=O
3. CCCCNC(=O)Oc1ccc2c(=O)c3sc4c(=O)c5ccccc5c(=O)c4c3c(=O)c2c1
4. O=C(CCc1ccccc1CO)NCCc1ccccc1
5. Cc1ccc(C(=O)CCC2C(=O)CC(C)(C)CC2=O)cc1

1: > 100 µM; 2: 39.8 µM; 3: 2.47 µM; 4: > 100 µM; 5: > 100 µM

* * *

- Tested on: HOP-92 NSCLC
- method_description: NCI tumour cell line growth inhibition, 48 h
Satisfied means recorded TGI is 30 µM or above; Not satisfied means it is below 30 µM.

Previously resolved entries follow.
| compound | class_assignment |
| --- | --- |
| CCc1n[nH]c(=O)n1NC(=O)c1ccccc1C(=O)O | Satisfied |
| O=C(N/C(=C\c1ccc([N+](=O)[O-])cc1)c1nc2ccc(Cl)cc2[nH]1)c1ccccc1 | Satisfied |
| COc1ccc(CCCC(=O)O)c(C)c1 | Satisfied |

Say whether "Cc1ccc(C(=O)CCC2C(=O)CC(C)(C)CC2=O)cc1" shows TGI of 30 µM or more.
Satisfied

Say whether "O=C(O)CN(c1ccccc1)S(=O)(=O)c1ccc(Cl)cc1" shows TGI of 30 µM or more.
Satisfied

Say whether "CC(C)c1cccc(C(C)C)c1N=C(N)C#N" shows TGI of 30 µM or more.
Satisfied

Say whether "O=C1CCCCC[C@]12SC[C@H]1CON=C12" shows TGI of 30 µM or more.
Satisfied

Say whether "Cc1ccc(O)c(-c2csc(NCN3CCN(CNc4nc(-c5cc(C)ccc5O)cs4)CC3)n2)c1" shows TGI of 30 µM or more.
Satisfied

Say whether O=CC1OC(=O)c2cc(O)c(O)c(O)c2-c2c(cc(O)c(O)c2O)C(=O)OC1C(O)C(O)CO (stereo unspecified) shows TGI of 30 µM or more.
Satisfied

Say whether "O=C(N/N=C\c1ccc([N+](=O)[O-])cc1)Nc1cccc2ccccc12" shows TGI of 30 µM or more.
Not satisfied

Say whether "O=C(NCCCCNCCCNC(=O)c1cc(-c2ccccc2)nc2ccccc12)c1cc(-c2ccccc2)nc2ccccc12" shows TGI of 30 µM or more.
Not satisfied

* * *

What TGI was measured for each of the following?
- Test system: KM12 colon
- method_description: NCI tumour cell line growth inhibition, 48 h

// below: answered compounds
| compound | system_under_test | measured_value |
| --- | --- | --- |
| O=C(c1cc2c(C(F)(F)F)onc2c2ccccc12)C(F)(F)F | KM12 colon | 52.9 µM |
| COc1ccc(-c2csc(NC(=O)N3CCN(c4cc5c(cc4F)c(=O)c(C(=O)O)cn5C4CC4)CC3)n2)cc1 | KM12 colon | > 100 µM |
| c1ccc(/N=C2\c3ccccc3CN2c2ccccn2)nc1 | KM12 colon | > 100 µM |
| NC1=NC(c2ccccc2)CC(c2cc(Cl)cc(Br)c2O)=N1 (stereo unspecified) | KM12 colon | 26.1 µM |
| CC(Oc1ccc(OCC2CCCCC2)cc1)C(=O)O (stereo unspecified) | KM12 colon | > 100 µM |

For each of the items listed, what is its TGI?
1. CC1(C)C(=O)C2(OS(=O)(=O)C(F)(F)F)CCC1C2 (stereo unspecified)
2. CC(C(=O)c1ccccc1)C1(O)C(=O)Nc2ccccc21 (stereo unspecified)
3. O=C1/C(=C/c2ccccc2Br)COc2ccc(O)c(O)c21
4. COc1ccc(C(=O)C(Br)C(Br)C(=O)O)cc1 (stereo unspecified)
5. N#CC(C(=O)CCC(=O)Nc1ccc(Cl)cc1)c1ccccc1Cl (stereo unspecified)

1: > 100 µM; 2: > 100 µM; 3: 4.78 µM; 4: > 100 µM; 5: > 100 µM

Using known records, supply TGI for C=CCCC(C)N(C(=O)OC(C)(C)C)S(=O)(=O)c1ccc(C)cc1 (stereo unspecified)
> 100 µM

* * *

- System: HT29 colon
- method_description: NCI tumour cell line growth inhibition, 48 h
What TGI was measured for each of the following?

| compound | TGI |
| --- | --- |
| CC(=O)Nc1ccc2oc(=O)c3ccccc3c2c1 | > 100 µM |
| Cc1ccc(Nc2nc(=O)[nH]c(=O)[nH]2)cc1N=[N+]=[N-] | > 100 µM |
| N#C[C@@]12CCCC(=O)[C@@H]1[C@H]1CCC[C@H]12 | 52.4 µM |
| CCOC(=O)CNC1C(NC(C)=O)C(OC)OC2COC(c3ccccc3)OC21 (stereo not drawn) | > 100 µM |
| Nc1nc(N)c2nnn(C[C@H]3CC[C@@H](CO)C3)c2n1 | > 100 µM |
| CN(C)Cc1cccc(CN(C)C)[c]1[Sn]([Br])([c]1ccccc1)[c]1ccccc1 | 71.8 µM |

For each of the items listed, what is its TGI?
1. N#Cc1ccc(-c2nc3ccc(Cl)cc3[nH]2)cc1
2. O=C1/C(=C/c2cccs2)NC(=S)N1CN1CCOCC1
3. NNC(=O)CCC(=O)Nc1ccc(Cl)cc1Cl
4. COc1ccc(Cl)cc1NC(=O)c1c(NC(=O)C(F)(F)C(F)(F)F)sc2c1CCCCC2
5. CCC1CCCCN1C(=S)N/N=C(\C)c1ccccn1 (stereo not drawn)
6. CN[C@@H](C)[C@H](OP(=O)(O)OC1[C@@H](O)[C@H](O)C(O)[C@H](O)[C@@H]1O)c1ccccc1 (stereo partly drawn)
7. CCc1n[nH]c(=O)n1NC(=O)c1ccccc1C(=O)O
8. O=C1CC2C(=O)C1C(C(=O)O)C2C(=O)O (stereo not drawn)

1. > 100 µM
2. > 100 µM
3. > 100 µM
4. > 100 µM
5. 4.69 µM
6. > 100 µM
7. > 100 µM
8. > 100 µM

For each of the items listed, what is its TGI?
1. N=c1oc2ccc(Cl)cc2cc1C(=O)NCc1ccccc1
2. CCOC(=O)C1(C(=O)OCC)CC(=O)[C@@]2(C1)OCC[C@H]1OC(=O)C[C@H]12
3. CSc1nncc2[nH]cnc12
4. C=C1SC(=Nc2ccccc2Cl)N(C(=O)c2sc3ccccc3c2Cl)C1(C)C
5. Cc1ccc(C(=O)CCC2C(=O)CC(C)(C)CC2=O)cc1
6. COC(=O)[C@H](Cc1ccccc1)NP(=O)(O)OCC1OC(n2cc(C)c(=O)[nH]c2=O)CC1N=[N+]=[N-] (stereo partly drawn)
7. CC1=C(/C=C/C2=CC(=C\C(=O)O)/CC(C3=C(C)CCCC3(C)C)C2)C(C)(C)CCC1 (stereo not drawn)
8. COc1cc2ccnc3c2c(c1OC)CC1CC(O)C(OC)CC31 (stereo not drawn)

1: > 100 µM; 2: > 100 µM; 3: > 100 µM; 4: 51.7 µM; 5: > 100 µM; 6: > 100 µM; 7: 28.6 µM; 8: > 100 µM

Using known records, supply TGI for "CNC(=O)c1cncc(/C=C/c2c(C)cccc2C)c1"
> 25 µM

Source: PubChem BioAssay (NCI)
